Molecular target: Adenosine receptor A2a (Homo sapiens, UniProt P29274)
Sequence (P29274 whole entry): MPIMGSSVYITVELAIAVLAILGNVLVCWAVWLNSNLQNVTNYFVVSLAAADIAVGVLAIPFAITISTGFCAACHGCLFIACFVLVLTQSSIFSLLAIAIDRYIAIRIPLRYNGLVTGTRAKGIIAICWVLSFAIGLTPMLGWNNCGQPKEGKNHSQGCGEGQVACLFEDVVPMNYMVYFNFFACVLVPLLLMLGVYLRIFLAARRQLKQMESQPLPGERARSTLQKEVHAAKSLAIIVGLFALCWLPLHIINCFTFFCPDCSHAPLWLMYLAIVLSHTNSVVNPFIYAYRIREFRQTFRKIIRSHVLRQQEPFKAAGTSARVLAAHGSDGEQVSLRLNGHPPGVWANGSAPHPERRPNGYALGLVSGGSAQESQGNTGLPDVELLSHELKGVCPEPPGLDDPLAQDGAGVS
Assay: Displacement of [3H]NECA from human adenosine A2A receptor expressed in CHO cells at 10 uM
Type: cell-based
ASSAY METRIC: Activity (%)
Number only, in %; omit the unit.

Reference set (7 entries):
> print(dat)
                           substance.smiles  unit.name  recorded.number
1  Cc1cccc(-n2cc3c(n2)c(N(C(=O)c2ccccc2)C(=O)c2ccccc2)nc2ccccc23)c1          %               20
2  Cc1cccc(-n2cc3c(n2)c(NC(=O)NCc2ccccc2)nc2ccccc23)c1          %               20
3  COc1ccc(-n2cc3c(n2)c(NC(C)=O)nc2ccccc23)cc1          %                0
4  COc1ccc(-n2cc3c(n2)c(NC(=O)c2ccccc2)nc2ccccc23)cc1          %               39
5  CC(=O)Nc1nc2ccccc2c2cn(-c3cccc(C)c3)nc12          %               10
6  Cc1ccc(-n2cc3c(n2)c(N(C(=O)c2ccccc2)C(=O)c2ccccc2)nc2ccccc23)cc1          %                0
7  O=c1[nH]c2ccccc2c2cn(-c3ccc([N+](=O)[O-])cc3)nc12          %                0

Req: Which Activity value is on record for `O=C(NCc1ccccc1)Nc1nc2ccccc2c2cn(-c3ccccc3)nc12` ?
Resp: 3
